B1: glmS ribozyme (parent)
chain: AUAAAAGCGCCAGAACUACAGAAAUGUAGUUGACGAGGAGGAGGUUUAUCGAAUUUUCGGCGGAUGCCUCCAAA

Variants of: B1
Experiment: self-cleavage kobs at 160 uM GlcN6P; higher = faster cleavage; RNA array
Settings: with glucosamine-6-phosphate
Fewer inactive variants are shown than the library holds.
# self-cleavage kobs at 160 uM GlcN6P annotations

{"Variant descriptor": "G32U G44U", "self-cleavage kobs at 160 uM GlcN6P": "< 1e-05 s⁻¹"}
{"Variant descriptor": "G60C C70U", "self-cleavage kobs at 160 uM GlcN6P": "< 1e-05 s⁻¹"}
{"Variant descriptor": "G9A A12U U31A A52G G59C", "self-cleavage kobs at 160 uM GlcN6P": "< 1e-05 s⁻¹"}
{"Variant descriptor": "G37A C70U", "self-cleavage kobs at 160 uM GlcN6P": "9.55e-05 s⁻¹"}
{"Variant descriptor": "A6G C8A A48C", "self-cleavage kobs at 160 uM GlcN6P": "< 1e-05 s⁻¹"}
{"Variant descriptor": "G29U G32A G37U G66A", "self-cleavage kobs at 160 uM GlcN6P": "< 1e-05 s⁻¹"}
{"Variant descriptor": "G51C U55G", "self-cleavage kobs at 160 uM GlcN6P": "< 1e-05 s⁻¹"}
{"Variant descriptor": "C10G G29A G62U C71U", "self-cleavage kobs at 160 uM GlcN6P": "< 1e-05 s⁻¹"}
{"Variant descriptor": "G13C G44C", "self-cleavage kobs at 160 uM GlcN6P": "< 1e-05 s⁻¹"}
{"Variant descriptor": "G9C A53C", "self-cleavage kobs at 160 uM GlcN6P": "< 1e-05 s⁻¹"}
{"Variant descriptor": "A12U G29U G35C U49A C70A C71G", "self-cleavage kobs at 160 uM GlcN6P": "< 1e-05 s⁻¹"}
{"Variant descriptor": "C10U G32C A36G A39U", "self-cleavage kobs at 160 uM GlcN6P": "< 1e-05 s⁻¹"}
{"Variant descriptor": "A33C U65G", "self-cleavage kobs at 160 uM GlcN6P": "< 1e-05 s⁻¹"}
{"Variant descriptor": "C10U C50G", "self-cleavage kobs at 160 uM GlcN6P": "9.85e-05 s⁻¹"}
{"Variant descriptor": "A36G U54C", "self-cleavage kobs at 160 uM GlcN6P": "< 1e-05 s⁻¹"}
{"Variant descriptor": "A15G G66A", "self-cleavage kobs at 160 uM GlcN6P": "0.00153 s⁻¹"}
{"Variant descriptor": "A14U G66U", "self-cleavage kobs at 160 uM GlcN6P": "4.39e-05 s⁻¹"}
{"Variant descriptor": "A14C C16G G38A A48G U49A", "self-cleavage kobs at 160 uM GlcN6P": "< 1e-05 s⁻¹"}
{"Variant descriptor": "G9U C34G C58G C68U", "self-cleavage kobs at 160 uM GlcN6P": "5.81e-05 s⁻¹"}
{"Variant descriptor": "A36C G41A G66U", "self-cleavage kobs at 160 uM GlcN6P": "< 1e-05 s⁻¹"}
{"Variant descriptor": "C10A A14C A42C G63A", "self-cleavage kobs at 160 uM GlcN6P": "< 1e-05 s⁻¹"}
{"Variant descriptor": "G37A G60A G66U", "self-cleavage kobs at 160 uM GlcN6P": "< 1e-05 s⁻¹"}
{"Variant descriptor": "C11U C61A G63C", "self-cleavage kobs at 160 uM GlcN6P": "< 1e-05 s⁻¹"}
{"Variant descriptor": "G29A G60A", "self-cleavage kobs at 160 uM GlcN6P": "< 1e-05 s⁻¹"}
{"Variant descriptor": "C10G G35A", "self-cleavage kobs at 160 uM GlcN6P": "< 1e-05 s⁻¹"}
{"Variant descriptor": "A14C G38C", "self-cleavage kobs at 160 uM GlcN6P": "< 1e-05 s⁻¹"}
{"Variant descriptor": "U46A U69C", "self-cleavage kobs at 160 uM GlcN6P": "0.000133 s⁻¹"}
{"Variant descriptor": "A39G", "self-cleavage kobs at 160 uM GlcN6P": "0.00433 s⁻¹"}
{"Variant descriptor": "C61U C71A", "self-cleavage kobs at 160 uM GlcN6P": "< 1e-05 s⁻¹"}
{"Variant descriptor": "G32U G41U G60A", "self-cleavage kobs at 160 uM GlcN6P": "< 1e-05 s⁻¹"}
{"Variant descriptor": "A36U G66C", "self-cleavage kobs at 160 uM GlcN6P": "< 1e-05 s⁻¹"}
{"Variant descriptor": "A12U A14C", "self-cleavage kobs at 160 uM GlcN6P": "0.000429 s⁻¹"}
{"Variant descriptor": "A14G U45G A53U", "self-cleavage kobs at 160 uM GlcN6P": "0.000618 s⁻¹"}
{"Variant descriptor": "A12G G32A", "self-cleavage kobs at 160 uM GlcN6P": "< 1e-05 s⁻¹"}
{"Variant descriptor": "C34U U56G", "self-cleavage kobs at 160 uM GlcN6P": "< 1e-05 s⁻¹"}
{"Variant descriptor": "G40A U55G", "self-cleavage kobs at 160 uM GlcN6P": "0.000246 s⁻¹"}
{"Variant descriptor": "G35C G60U G62C", "self-cleavage kobs at 160 uM GlcN6P": "< 1e-05 s⁻¹"}
{"Variant descriptor": "U31A G32U", "self-cleavage kobs at 160 uM GlcN6P": "4.59e-05 s⁻¹"}
{"Variant descriptor": "A14G G41U", "self-cleavage kobs at 160 uM GlcN6P": "0.000642 s⁻¹"}
